System: V. cholerae SAD30
Construct: SAD30
Parameters: species or system S. aureus MSSA476 (TSB) or V. cholerae SAD30 (LB); 384-well bacterial growth screen at 25 uM, OD600 relative to DMSO control
experimental.setup: relative growth, OD600, LB; 25 µM; inhibitor
Hit rate of the full screen: of about 3,200 compounds, about 110 (3.4%) showed an effect of 50% or more. Only a selection was taken, and strong results are over-represented in it overall.
Field: % of control remaining. Provide a value for each of the molecules that follow.
Give bare numbers, in %.

>>> df
                                   molecule  readout_value
0                      Cl.O=C(CCl)Nc1ccccn1        98.0141
1       C[C@H]1CN(C(=O)CCl)CCN1C(=O)c1cscn1        86.0775
2           CN(Cc1ccc(N(C)C)cc1)C(=O)CCl.Cl         92.298
3  C[C@@H](NC(=O)CCl)c1ccccc1 [6-O20, 2-chloro-N-[(1R)-1-phenylethyl]acetamide]        94.0373

Below are some molecules; for each one, tell me its % of control remaining.
1. O=C(CCl)c1ccc(O)cc1O
2. Cn1ccnc1C(=O)CCl

*A*
1. 100.682
2. 101.461

Below are some molecules; for each one, tell me its % of control remaining.
1. CCCn1c(C)cc(C=C(C#N)C(=O)N2CCC2)c1C
2. C=CC(=O)NCc1csc(C(C)(C)C)n1
3. C=CC(=O)NCc1cn([C@@H]2COC[C@H]2OC)nn1
4. O=C(CCl)c1cscn1
5. Cc1cc(C(=O)CCl)c(C)n1Cc1ccc(F)cc1

*A*
1. 60.707
2. 91.5854
3. 85.0523
4. 0
5. 95.5387

----------
Tested on: V. cholerae SAD30
Construct: SAD30
Set-up: species or system S. aureus MSSA476 (TSB) or V. cholerae SAD30 (LB); 384-well bacterial growth screen at 25 uM, OD600 relative to DMSO control
experimental.setup: relative growth, OD600, LB; 25 µM; inhibitor
Among all 3,200 compounds or so, about 110 (3.4%) showed an effect of 50% or more. Shown is part of a subset that was picked to be rich in strong results.
reported.property: % of control remaining (%)
Give bare numbers, in %.

Below are some compounds; for each one, tell me its % of control remaining.
1. C=CCNC(=O)C(C#N)=Cc1cccc(C(F)(F)F)c1
2. C=CC(=O)N(Cc1c(F)cc(C)cc1Cl)C1CCCOCC1 (centres unmarked)
3. N#Cc1ccc(C(=O)CCl)cc1

*A*
[71.8559, 81.8585, 0]

----------
Field: % of control remaining. Provide a value for each of the molecules that follow.
Tested on: V. cholerae SAD30
Construct: SAD30
Design: species or system S. aureus MSSA476 (TSB) or V. cholerae SAD30 (LB); 384-well bacterial growth screen at 25 uM, OD600 relative to DMSO control
experimental.setup: relative growth, OD600, LB; 25 µM; inhibitor
Among all 3,200 compounds or so, about 110 (3.4%) showed an effect of 50% or more. The entries come from a sample that favours strong results as a whole.
One number for each entry, in %.

>>> print(df.to_string())
                                   molecule  readout_value
0  CSc1ccccc1NC(=O)C(C)Cl (centres unmarked)        94.8889

Below are some molecules; for each one, tell me its % of control remaining.
1. O=C(CCl)NCCc1cccc(Cl)c1
2. CC(Cl)C(=O)N1CCN(Cc2cc(=O)n3ccsc3n2)CC1 (centres unmarked)

*A*
[115.33, 97.5258]

Below are some molecules; for each one, tell me its % of control remaining.
1. Cc1cc(C=C(C#N)C(N)=O)c(C)n1-c1cccc2ccccc12
2. CC(Cl)C(=O)NCC1CN(c2nncs2)CCO1 (centres unmarked)
3. C=CC(=O)Nc1cc(Cl)cc(C)c1OC
4. CC(Cl)C(=O)N(C)CCn1c(=O)oc2ccccc21 (centres unmarked)
5. COc1ccc(-n2c(C)c(C)c(C#N)c2NC(=O)CCl)cc1
6. O=S(=O)(CC=C(Cl)Cl)N1CCSSCC1
7. C=CC(=O)Nc1ccc(C(N)=O)nc1OC

*A*
1. 52.4133
2. 90.798
3. 87.145
4. 82.4715
5. 105.413
6. 92.5774
7. 89.6861

Below are some molecules; for each one, tell me its % of control remaining.
1. CSc1cc(C(=O)CCl)ccc1NC(C)=O
2. N#CC(=Cc1cc2ccccc2o1)C(=O)NCc1ccco1
3. O=C1C=CC(=O)N1c1ccccc1F
4. C=CC(=O)N1CCC(C(=O)NC[C@H]2C[C@@H](O)C2)(c2ccccc2)CC1
5. Cc1ccc(C=C(C#N)C(=O)NCc2ccco2)o1
6. CSc1ccccc1NC(=O)CCl

*A*
[25.2484, 80.4215, 26.1835, 105.852, 80.6934, 92.3011]

----------
Test system: V. cholerae SAD30
Construct: SAD30
Parameters: species or system S. aureus MSSA476 (TSB) or V. cholerae SAD30 (LB); 384-well bacterial growth screen at 25 uM, OD600 relative to DMSO control
experimental.setup: relative growth, OD600, LB; 25 µM; inhibitor
Screen size: about 3,200 compounds; about 110 (3.4%) showed an effect of 50% or more. Only a selection was taken, and strong results are over-represented in it overall.
reported.property: % of control remaining (%)
One number for each entry, in %.

Study these solved cases before continuing.
>>> df
                                   molecule  readout_value
0      CCn1nc(C)c(CN(C)C(=O)CCl)c1C [5-A10]        104.907
1      Cc1cccc2[nH]cc(C(=O)CCl)c12 [10-H09]        100.526
2  CCc1cccc(CC)c1NC(=O)CCl [4-F10, 2-chloro-N-(2,6-diethylphenyl)acetamide]         103.86
3               Cn1ncc(C(=O)CCl)n1 [10-J10]        112.838
4  N#CC(=Cc1cccc(Cl)c1Cl)C(=O)NCCc1ccccc1 [8-J06]        78.9259
5  CN1C=C(C(F)(F)F)C=CC1=C(C#N)C(=O)Nc1ccccc1F [8-H20]        66.9613
6            O=C(CCl)Cc1cccc(F)c1F [10-K17]         0.1559
7  O=C(CCl)Nc1ccc(Cl)c(S(=O)(=O)N2CCCCC2)c1 [4-P14]        110.589

Below are some molecules; for each one, tell me its % of control remaining.
1. Cc1cccc(Cl)c1CCCNC(=O)CCl [7-F04]
2. CC(Cl)C(=O)Nc1ccc(S(=O)(=O)N2CCCCC2)cc1 (centres unmarked) [4-A12]
3. CCCc1ccc(C(=O)CCl)cc1 [10-C04, 2-chloro-1-(4-propylphenyl)ethan-1-one]
4. Cc1cc(C(=O)C(C)Cl)c(C)n1-c1ccc(OC(F)F)cc1 (centres unmarked) [10-E10]
5. O=C(CCl)N(Cc1ccc(Cl)cc1)C12CC3CC(CC(C3)C1)C2 [4-H07]
6. C=CC(=O)N1CCC(C(=O)Nc2ccccc2NS(C)(=O)=O)CC1 [3-C06]
7. CC(=O)Nc1ccc(C(=O)CCl)cc1 [10-O12, N-[4-(2-chloroacetyl)phenyl]acetamide]

*A*
1. 91.9874
2. 95.234
3. 109.254
4. 97.7206
5. 55.3806
6. 107.793
7. 74.4983

Below are some molecules; for each one, tell me its % of control remaining.
1. C=CC(=O)NC1CN(S(=O)(=O)c2ccc3c(c2)OCCO3)C1 [2-E11]
2. Cc1cccc2nc(C3CCN(C(=O)C(C)Cl)CC3)oc12 (centres unmarked) [7-M12]
3. CCn1cc(NC(=O)CCl)cn1.Cl [6-I15]

*A*
1. 95.7541
2. 63.8361
3. 98.4359

----------
System: V. cholerae SAD30
Construct: SAD30
Parameters: species or system S. aureus MSSA476 (TSB) or V. cholerae SAD30 (LB); 384-well bacterial growth screen at 25 uM, OD600 relative to DMSO control
experimental.setup: relative growth, OD600, LB; 25 µM; inhibitor
Among all 3,200 compounds or so, about 110 (3.4%) showed an effect of 50% or more. The list comes from a sample in which strong results are over-represented; it also holds close analogues and randomly drawn compounds.
Field: % of control remaining. Provide a value for each of the molecules that follow.
Answers are plain numbers, in %.

Below are some molecules; for each one, tell me its % of control remaining.
1. Cc1ccc(C(=O)C(C)Cl)cc1C (stereo not shown) [10-B20]
2. C=CCNC(=O)C(C#N)=Cc1cccc2ccccc12 [9-L10]
3. N#CC(=Cc1ccsc1)C(=O)Nc1ccccc1Cl [9-O05]
4. N#Cc1ccccc1NC(=O)CCl [5-P04, 2-chloro-N-(2-cyanophenyl)acetamide]

*A*
[99.2792, 88.3073, 98.9123, 116.339]

Below are some molecules; for each one, tell me its % of control remaining.
1. Cc1cccc(C=C(C#N)C(=O)Nc2ccc(C(=O)O)cc2)c1 [8-M21]
2. COc1ccc(CCN2C(=O)C=CC2=O)cc1 [10-A05]
3. CC(Cl)C(=O)Nc1ccccc1C#N (stereo not shown) [6-A11, 2-chloro-N-(2-cyanophenyl)propanamide]
4. Cc1coc(C)c1C(=O)CCl [10-M11]
5. C=CC(=O)NCCCc1conc1C [2-N13]
6. C=CC(=O)NC1(c2nc(C3CC3)cc(=O)[nH]2)CCCCC1 [3-H13]
7. C=CC(=O)N(CC)CC(=O)N1CC(C)(C)C1c1nccn1C (stereo not shown) [2-J16]

*A*
1: 75.7988; 2: 35.8465; 3: 96.0091; 4: 109.41; 5: 87.88; 6: 88.7374; 7: 90.3503

Below are some molecules; for each one, tell me its % of control remaining.
1. C=CC(=O)NC1(C(N)=O)Cc2ccccc2C1 [2-D15]
2. Cc1c(Cl)cccc1N1C(=O)C=CC1=O [10-B17]
3. C=CC(=O)N1CCC(C(=O)NCc2ccoc2C)CC1 [1-E14]
4. O=C1C=CC(=O)N1c1ccccc1Sc1ccc(Cl)cc1 [10-A03]
5. CC(Cl)C(=O)Nc1ccccc1[N+](=O)[O-] (stereo not shown) [4-G18, 2-chloro-N-(2-nitrophenyl)propanamide]
6. C=CC(=O)N1CCC(C(=O)N[C@]2(C(=O)OC)CC[C@@H](C)CC2)CC1 [3-E17]
7. CC(C)NC(=O)C(C#N)=Cc1ccc(Cl)cc1 [9-C09]
8. CC(Cl)C(=O)Nc1c(C(C)C)cccc1C(C)C (stereo not shown) [4-B15]

*A*
[88.8063, 23.3781, 89.0882, 28.6772, 96.0966, 101.088, 85.3161, 91.4384]

Below are some molecules; for each one, tell me its % of control remaining.
1. N#CC(=Cc1ccccc1Cl)C(=O)Nc1ccc2c(c1)OCCO2 [8-F03]
2. CCOc1ccc2nc(NC(=O)CCl)sc2c1 [4-L10]
3. O=C1C=CC(=O)N1c1ccccc1Sc1ccccc1 [10-K12]
4. CC(Cl)C(=O)N1CCN(Cc2ccc3ccccc3n2)CC1 (stereo not shown) [7-A15]

*A*
94.4256
94.3714
28.0538
80.0925

Below are some molecules; for each one, tell me its % of control remaining.
1. CN(c1ccccc1)S(=O)(=O)c1cccc(NC(=O)CCl)c1 [4-H04]
2. O=C(CCl)NCCCc1ccccc1 [4-N04, 2-chloro-N-(3-phenylpropyl)acetamide]
3. Cc1cc(CO[C@H]2CC[C@H](NC(=O)CCl)CC2)on1 [6-K19]
4. CC(=O)N1c2ccc(C(=O)CCl)cc2CC1C (stereo not shown) [10-I20]
5. COc1ccc2c(c1)OCCN(C(=O)C(C)Cl)C2 (stereo not shown) [7-E04]

*A*
1. 111.106
2. 112.487
3. 92.9756
4. 84.473
5. 86.04

Below are some molecules; for each one, tell me its % of control remaining.
1. CN1c2ccccc2C(NC(=O)CCl)CS1(=O)=O (stereo not shown) [7-L04]
2. O=C(O)C(c1ccccc1)N1C(=O)C=CC1=O (stereo not shown) [10-E21]
3. CC(Cl)C(=O)N(C)C[C@@H]1C[C@H](F)CN1c1ccnc(N(C)C)n1 (stereo partly shown) [7-K16]
4. CC(Cl)C(=O)N[C@H]1C[C@H](C)S(=O)(=O)c2sccc21 (stereo partly shown) [6-B22]
5. O=C1C=CC(=O)N1CCc1ccccc1F [10-G03]
6. C=CC(=O)N1CCCCC(S(C)(=O)=O)C1 (stereo not shown) [2-E17]

*A*
88.9476
103.487
71.1052
103.289
22.2872
92.6662

Below are some molecules; for each one, tell me its % of control remaining.
1. CC(=O)N1CCc2cc(C(=O)C(C)Cl)ccc21 (stereo not shown) [10-L22]
2. COc1cccc([C@H]2C[C@H](N(C)C(=O)C(C)Cl)C2)c1 (stereo partly shown) [6-B17]
3. C=CC(=O)Nc1cccc(-c2cn(C)nn2)c1 [1-K14]
4. Cc1cc(C(=O)CCl)c(C)n1CCc1ccc(F)cc1 [10-G14]
5. Cc1c(Cl)cccc1NC(=O)C(C)Cl (stereo not shown) [6-I10]
6. CCN(Cc1ccc(Cl)s1)C(=O)CCl [6-M11]

*A*
1. 100.214
2. 89.6388
3. 83.4081
4. 97.7206
5. 83.2686
6. 83.1169

Values compiled from paper PMC11995724.
